System: green foxtail (Setaria viridis, SETVI)
measurement.protocol: Post-emerge greenhouse herbicide test, phytotoxicity rating
Assay type: in vivo
stated.conditions: 500 g al/ha, 14 days after application

smiles.representation	SETVI phytotoxicity rating (0-100)
O=C1C2=CCCCN2C(=O)N1c1cc(Oc2ncccc2C(F)(F)F)c(Cl)cc1F	10
Cn1nc(-c2cc(Oc3ncccc3C#N)c(Cl)cc2F)c(Cl)c1C(F)(F)F	90
O=c1n(CCCF)nnn1-c1cc(Oc2ccc(C(F)(F)F)cn2)c(Cl)cc1F	90
O=c1n(-c2cc(Oc3ccc([N+](=O)[O-])cc3)c(Cl)cc2F)c(=S)n2n1CCCC2	30
Cn1c(C(F)(F)F)nc(-c2cc(Oc3ncccc3[N+](=O)[O-])c(Cl)cc2F)c1Cl	65

* * *

Tested on: redroot pigweed (Amaranthus retroflexus, AMARE)
measurement.protocol: Post-emerge greenhouse herbicide test, phytotoxicity rating
Type: in vivo
stated.conditions: 63 g al/ha, 14 days after application
endpoint: AMARE phytotoxicity rating (0-100)

smiles.representation	observed.result
N#Cc1cccnc1Oc1cc(-n2nnn(CCCF)c2=O)c(F)cc1Cl	75
Cn1nc(-c2cc(Oc3ncccc3C(F)(F)F)c(Cl)cc2F)c(Cl)c1C(F)(F)F	80
O=c1n(CCCF)nnn1-c1cc(Oc2ncccc2[N+](=O)[O-])c(Cl)cc1Cl	20
O=c1n(CCCF)nnn1-c1cc(Oc2ccc(C(F)(F)F)cn2)c(Cl)cc1Cl	0

# credit: patent US6479435B1
